# target: recombinant AplaCSP4 (Agrilus planipennis chemosensory protein 4) (Agrilus planipennis, UniProt A0A1W4XLL0)
# Sequence (A0A1W4XLL0 entry or part of it): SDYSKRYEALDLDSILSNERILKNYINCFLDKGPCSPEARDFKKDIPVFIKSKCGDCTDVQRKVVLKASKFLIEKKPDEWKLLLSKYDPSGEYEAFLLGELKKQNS
# assaySummary: biochemical
# Assay type: binding
# appliedConditions: pH 7.4, ligand concentration 6 μM; three replicate columns; 100 at 0 μM; read-out: Competitive binding capability(%)
# activity at 6 µM listing for each entry below
quantity: activity at 6 µM (%)

- compound: "CC/C=C\\CCOC(=O)c1ccccc1 [cis-3-Hexenyl benzoate]"
  testValue: 51.7
- compound: "C=CC(C)(O)CCC=C(C)CCC=C(C)C (mixture of isomers)"
  testValue: 25.6
- compound: "CCCCCCOC(=O)CCC [Hexyl butyrate]"
  testValue: 78.8
- compound: "C=CC(=C)CCC=C(C)C"
  testValue: 75.3
